System: T1, TNFR1 (Homo sapiens, UniProt P19438)
T1 chain: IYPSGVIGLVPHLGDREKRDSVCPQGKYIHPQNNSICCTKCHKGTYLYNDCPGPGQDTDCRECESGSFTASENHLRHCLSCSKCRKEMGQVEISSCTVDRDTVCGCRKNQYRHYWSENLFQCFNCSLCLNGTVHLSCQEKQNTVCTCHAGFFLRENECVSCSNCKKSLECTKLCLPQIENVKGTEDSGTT
Run Description: yeast display SC50
Test Readout: apparent Kd (screen) (nM)

(I) K64N (designed binder) SMEEEVEKAAKEYEKKKKEAIEKHLEKLKAKDKEAAERFLKELEEAAKEYAKDEAKTMSEEEANRRAKKYKEKVLLSELSEEEQKEIKEAEEKLVRTILKYVEEAAK
(II) A55E (designed binder) SMEEEVEKAAKEYEKKKKEAIEKHLEKLKAKDKEAAERFLKELEEAAKEYAKDEEKTMSEEEAKRRAKKYKEKVLLSELSEEEQKEIKEAEEKLVRTILKYVEEAAK
Which of the two gives a bigger number for apparent Kd (screen): I or II ? To answer, give the label that identifies your chosen option.
II
